Values were extracted from the RNAGym collection of RNA variant scans (doi:10.7554/elife.80360).

B1: Hairpin Ribozyme (parent)
chain: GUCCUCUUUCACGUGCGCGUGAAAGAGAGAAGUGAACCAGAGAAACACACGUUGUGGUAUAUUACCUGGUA

variants of: B1; experiment: self-cleavage, relative activity (ratio to wild type); higher = more cleavage; co-transcriptional
measured_endpoint: self-cleavage
Form: value (number only, do not type unit).

residue_codes: GUCCUCUUUCACGUGCGCGUGAAAGAGAGAAGUGAACCAGAGAAACACACGUUGAGGUAUAUUACCUGGUA [U55A]
self-cleavage: 0.258
//
residue_codes: GUCCUCUUUCACGUGCGCGUGUAAGAGAGAAGUGAACCAGAGAAACACACGUUGUGGUAUAUAACCUGGUA [A22U U63A]
self-cleavage: 0.155

// self-cleavage value for GUCCUCUCUCACGUGCGCGUGAAAGAGAGAAGUGAACCAGAGAAACACACGUAGUGGUAUAUUACCUGGUA [U8C U53A] : 0.674

// self-cleavage value for GUCCUCUUUGACGUGCGCGUGAAAGAGAGAAGUGAACCACAGAAACACACGUUGUGGUAUAUUACCUGGUA [C10G G40C] : 0.122

// self-cleavage value for GUCCUCUUUCAUGUGCGCGUGAAAGAGAGCAGUGAACCAGAGAAACACACGUUGUGGUAUAUUACCUGGUA [C12U A30C] : 0.193

// self-cleavage value for GUCCUCUUUCACGUGCGCGUGAAAGAGAGAAGUGAACCAGAGAAACACACGUUGUGGUAUAUUACCUCGGA [G68C U70G] : 0.576

// self-cleavage value for GUCCUCUUUCACGUGCGCGUGAAAGAGAGAAGUGAACCAGCGAAACACACGUUGUGGUAUAUUACCUGGUU [A41C A71U] : 1.18

// self-cleavage value for GUCCUCUUUCACGUGCGCGUGAAAGAGAGAAGUGAACCAGAGAAACACACGUUGUGGUAUAUAACCUGAUA [U63A G69A] : 0.153

// self-cleavage value for GUCCUCUUUCACGUGCGCGUGAAAGAGAGAAGUGAACCAGAGAAACACACCUUGUGGUAUAUUAACUGGUA [G51C C65A] : 0.857

// self-cleavage value for GUCCUCUUUCACGUGCGCGUGAAAGAGAGGAGUGAACCAGAGAAACACACGUUGUGGUAUAUUACCUGGCA [A30G U70C] : 0.0846

// self-cleavage value for GUCCUCUUUCACGUGCGCGUGAAAGAGAGAAGUGAACCAGAGAAACACACGUUGUGGUAUAUUACGUCGUA [C66G G68C] : 0.0397

// self-cleavage value for GUCCUCUUUCACCUGCGCGUGACAGAGAGAAGUGAACCAGAGAAACACACGUUGUGGUAUAUUACCUGGUA [G13C A23C] : 0.364

// self-cleavage value for GUCCUCUUUCAGGUGCGCGUGAAAGAGAGAAGUGAACCAGAGAAACACACGUUGUGGAAUAUUACCUGGUA [C12G U58A] : 0.734

// self-cleavage value for GUCCUCUUUCACGUGCGCGUGAAAGAGAGCAGUGAACCAGAGAAACACACGUUGCGGUAUAUUACCUGGUA [A30C U55C] : 0.161

// self-cleavage value for GUCCUCUUUCACGUGCCCGUGAAAGAGAGAAGUGAACCAGAGAAACACACGUUGUGGUAUACUACCUGGUA [G17C U62C] : 0.233
